Ref: patent US11021446B2

- test target: human Farnesoid X Receptor (FXR) ligand binding domain (GST-FXR LBD) (Homo sapiens)
- experimental details: Human GST-FXR LBD co-activator interaction assay (FXR HTRF assay)
- measurement conditions: GST-FXR LBD interaction with biotin-labeled SRC-1 peptide, FRET, response relative to GW4064, read-out: FXR coactivator interaction assay (HTRF)
pEC50: −log10 of the molar value.
Returns one of condition met or condition not met; condition met when pEC50 is >= 8.

{"compound": "Cc1cc(C(=O)O)cc(C)c1OCCN(Cc1ccccc1F)C(=O)c1nn(C)c2c1COc1ccc(Cl)cc1-2 [Compound 47]", "test target": "human Farnesoid X Receptor (FXR) ligand binding domain (GST-FXR LBD) (Homo sapiens)", "class assignment": "condition met"}

Exercise: Check the entry Cn1nc(C(=O)N(CC(=O)Nc2cc(C(=O)O)ccc2F)Cc2ccccc2F)c2c1-c1cc(F)c(F)cc1OC2 [Compound 17] : does pEC50 equal or exceed 8?
Solution: condition met

Exercise: Check the entry Cc1cc(C(=O)O)ccc1OCCN(Cc1ccccc1F)C(=O)c1nn(C)c2c1COc1ccc(Cl)cc1-2 [Compound 46] : does pEC50 equal or exceed 8?
Solution: condition met

Exercise: Check the entry Cn1nc(C(=O)N(CC(=O)Nc2cc(C(=O)O)ccc2F)Cc2ccccc2)c2c1-c1cc(F)ccc1OC2 [Compound 32] : does pEC50 equal or exceed 8?
Solution: condition met

Exercise: Check the entry Cn1nc(C(=O)N(CC(=O)Nc2cccc(C(=O)O)c2)Cc2ccccc2F)c2c1-c1cc(Cl)cc(F)c1OC2 [Compound 15] : does pEC50 equal or exceed 8?
Solution: condition met

====

- test target: human Farnesoid X Receptor (FXR) ligand binding domain (GST-FXR LBD) (Homo sapiens, UniProt Q96RI1)
- Sequence (Q96RI1 193-472 isoform Q96RI1-2): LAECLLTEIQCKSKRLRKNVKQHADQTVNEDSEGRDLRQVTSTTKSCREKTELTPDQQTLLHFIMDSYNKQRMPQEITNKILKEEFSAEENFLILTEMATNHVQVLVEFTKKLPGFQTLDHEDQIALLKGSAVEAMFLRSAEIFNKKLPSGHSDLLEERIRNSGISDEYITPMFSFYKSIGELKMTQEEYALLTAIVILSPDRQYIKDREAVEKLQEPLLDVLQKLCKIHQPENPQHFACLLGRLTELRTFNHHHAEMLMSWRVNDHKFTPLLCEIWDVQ
- experimental details: Human GST-FXR LBD co-activator interaction assay (FXR HTRF assay)
- measurement conditions: GST-FXR LBD interaction with biotin-labeled SRC-1 peptide, FRET, response relative to GW4064, read-out: FXR coactivator interaction assay (HTRF)
// thresholds for EC50 classes: one: < 1 nM; two: ≥ 1 nM and < 8 nM; three: ≥ 8 nM

// known answers, use as guide
{"chemical smiles": "Cn1nc(C(=O)N(CC(=O)Nc2cc(C(=O)O)ccc2F)Cc2cccc(F)c2)c2c1-c1cc(Cl)ccc1OC2", "class assignment": "one"}
{"chemical smiles": "Cc1cccc(CN(Cc2ccc(C(=O)O)cc2)C(=O)c2nn(C)c3c2COc2ccc(Cl)cc2-3)c1", "class assignment": "three"}
{"chemical smiles": "Cn1nc(C(=O)N(CCNc2cccc(C(=O)O)c2)Cc2ccccc2F)c2c1-c1cc(Cl)ccc1OC2", "class assignment": "two"}
{"chemical smiles": "Cc1cccc(CN(CC(=O)Nc2cc(C(=O)O)ccc2F)C(=O)c2nn(C)c3c2COc2ccccc2-3)c1", "class assignment": "one"}
{"chemical smiles": "Cn1nc(C(=O)N(CCOc2c(F)cc(C(=O)O)cc2F)Cc2ccccc2)c2c1-c1cc(Cl)ccc1OC2", "class assignment": "two"}

Exercise: # bin lookup: classify `Cn1nc(C(=O)N(CC(=O)Nc2cccc(C(=O)O)c2)Cc2ccccc2F)c2c1-c1cc(Cl)ccc1OC2` by its EC50
Solution: one

Exercise: # bin lookup: classify `Cn1nc(C(=O)N(Cc2ccc(C(=O)O)cc2)Cc2cccc(F)c2)c2c1-c1cc(Cl)ccc1OC2` by its EC50
Solution: two

Exercise: # bin lookup: classify `Cn1nc(C(=O)N(CC(=O)Nc2cc(C(=O)O)ccc2F)Cc2cccc(F)c2)c2c1-c1ccccc1OC2` by its EC50
Solution: two

Exercise: # bin lookup: classify `Cn1nc(C(=O)N(Cc2ccccc2)Cc2ccc(C(=O)O)cc2F)c2c1-c1cc(F)ccc1OC2` by its EC50
Solution: three

Exercise: # bin lookup: classify `Cc1cccc2c1OCc1c(C(=O)N(CC(=O)Nc3cccc(C(=O)O)c3)Cc3ccccc3F)nn(C)c1-2` by its EC50
Solution: two

Exercise: # bin lookup: classify `Cn1nc(C(=O)N(CC(=O)Nc2cc(C(=O)O)ccc2F)Cc2cccc(F)c2)c2c1-c1cc(F)c(F)cc1OC2` by its EC50
Solution: one

Exercise: # bin lookup: classify `Cn1nc(C(=O)N(CCOc2ccc(C(=O)O)cc2F)Cc2ccccc2)c2c1-c1cc(F)c(F)cc1OC2` by its EC50
Solution: three

Exercise: # bin lookup: classify `Cn1nc(C(=O)N(CCOc2ccc(C(=O)O)cc2F)Cc2ccccc2F)c2c1-c1cc(F)c(F)cc1OC2` by its EC50
Solution: three

Exercise: # bin lookup: classify `Cn1nc(C(=O)N(Cc2ccc(C(=O)O)cc2)Cc2cc(F)cc(F)c2)c2c1-c1cc(Cl)ccc1OC2` by its EC50
Solution: three

Exercise: # bin lookup: classify `Cn1nc(C(=O)N(CC(=O)Nc2cccc(C(=O)O)c2)Cc2ccccc2F)c2c1-c1cc(Cl)ccc1CC2` by its EC50
Solution: two
